// data source = patent US10059669B2

molecular target: BACE1 (Homo sapiens (Human)); experiment: BACE1 efficacy assay (FRET-based, commercial BACE1 kit); assay type: biochemical; details: 10 μM test compound
Sequence (P56817 46-501): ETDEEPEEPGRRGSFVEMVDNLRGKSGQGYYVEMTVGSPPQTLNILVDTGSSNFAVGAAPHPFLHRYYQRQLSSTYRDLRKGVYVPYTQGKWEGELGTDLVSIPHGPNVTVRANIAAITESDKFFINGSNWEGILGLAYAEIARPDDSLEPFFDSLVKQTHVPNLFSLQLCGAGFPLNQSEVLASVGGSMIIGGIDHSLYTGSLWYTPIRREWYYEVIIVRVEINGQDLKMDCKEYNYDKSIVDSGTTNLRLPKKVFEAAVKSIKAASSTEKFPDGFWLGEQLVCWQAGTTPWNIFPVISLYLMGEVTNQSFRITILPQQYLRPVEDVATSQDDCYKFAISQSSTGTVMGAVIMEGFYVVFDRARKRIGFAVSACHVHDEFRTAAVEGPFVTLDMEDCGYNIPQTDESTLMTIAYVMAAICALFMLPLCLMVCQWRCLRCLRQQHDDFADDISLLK
assay metric: inhibition at 10 µM

Observe how each entry below is paired with its result.
input: Please look at `Cc1cc(C#N)cnc1C(=O)Nc1ccc(F)c([C@@]2(C)N=C(N)[C@@](C)(F)C[C@@H]2F)c1` and tell me its recorded inhibition at 10 µM on BACE1 (Homo sapiens (Human)).
output: 117%

input: Write inhibition at 10 µM of `COc1ccc(C(=O)Nc2ccc(F)c([C@@]3(C)N=C(N)[C@@](C)(F)C[C@@H]3F)c2)nc1` ; system used: BACE1 (Homo sapiens (Human))
output: 102%

input: # return inhibition at 10 µM of `[2H]C([2H])([2H])Oc1cnc(C(=O)Nc2ccc(F)c([C@@]3(C)N=C(N)[C@@](C)(F)C[C@@H]3F)c2)cn1` (system: BACE1 (Homo sapiens (Human)))
output: 106%

Turning now to a further compound:
input: Specify inhibition at 10 µM for `C[C@@]1(F)C[C@H](F)[C@@](C)(c2cc(NC(=O)c3coc(C(F)F)n3)ccc2F)N=C1N` , system BACE1 (Homo sapiens (Human)).
output: 108%

====

system: P-gp (MDR1); test: MDCK-MDR1 assay (permeability, efflux ratio); assay type: in vitro ADME; details: dog, Papp BA/Papp AB, 60-minute incubation, Pgp substrate when ≥2
Provide the reported efflux ratio at 60 min, 0.5 μM of each item.
Numbers only.

As a guide, the following entries are already answered.
input: // output efflux ratio at 60 min, 0.5 μM; input `C[C@@]1(F)C[C@H](F)[C@@](C)(c2cc(NC(=O)c3cnc(C(F)F)cn3)ccc2F)N=C1N` ; system P-gp (MDR1)
output: 2.07

input: // fetch efflux ratio at 60 min, 0.5 μM for `C[C@]1(F)C[C@H](F)[C@@](C)(c2cc(NC(=O)c3ccc(F)cn3)ccc2F)N=C1N` ; system: P-gp (MDR1)
output: 1.09

input: Provide P-gp (MDR1) efflux ratio at 60 min, 0.5 μM reading for `C[C@@]1(F)C[C@H](F)[C@@](C)(c2cc(NC(=O)c3ccc(Cl)cn3)ccc2F)N=C1N` .
output: 1.31

input: Write down the reported efflux ratio at 60 min, 0.5 μM (system: P-gp (MDR1)) of `C[C@@]1(F)C[C@H](F)[C@@](C)(c2cc(NC(=O)c3ccn(C(F)F)n3)ccc2F)N=C1N`
output: 15.8

input: Consider the compound `C[C@@]1(F)C[C@H](F)[C@@](C)(c2cc(NC(=O)c3ccc(C#N)cn3)ccc2F)N=C1N` tested on P-gp (MDR1); state its efflux ratio at 60 min, 0.5 μM.
output: 0.45

Kindly review the next compound as well.
input: // fetch efflux ratio at 60 min, 0.5 μM; item: `C[C@@]1(F)C[C@H](F)[C@@](C)(c2cc(NC(=O)c3ccc(Cl)cc3)ccc2F)N=C1N` ; system: P-gp (MDR1)
output: 1.6

====

assay: Bioanalysis of brain and plasma samples (exposure, UPLC-MS/MS); format: in vivo, rat; conditions: male, Sprague Dawley, po; Plasma Rat, 10 mg/kg p.o., 3 hours post dose; read-out: Exp
assay metric: concentration at 3 h (ng/g)
Give bare numbers, in ng/g.

input: Report concentration at 3 h, nothing else, for this molecule: COc1ccc(C(=O)Nc2ccc(F)c([C@@]3(C)N=C(N)[C@@](C)(F)C[C@@H]3F)c2)nc1 [Compound 3]
output: 489

Now look at this entry.
input: For the molecule [2H]C([2H])([2H])Oc1ccc(C(=O)Nc2ccc(F)c([C@@]3(C)N=C(N)[C@@](C)(F)C[C@@H]3F)c2)nc1 [Compound 19] , give its measured concentration at 3 h value.
output: 473

====

biological target: BACE1 (Homo sapiens (Human)); assay: BACE1 efficacy assay (FRET-based, commercial BACE1 kit); type: biochemical; settings: 10 μM test compound
Record form. Attribute: inhibition at 10 µM. Fill in for each entry.
One number for each entry, in %.

Solved entries:
input: Report inhibition at 10 µM for `C[C@@]1(F)C[C@H](F)[C@@](C)(c2cc(NC(=O)c3cnc(C(F)(F)F)cn3)ccc2F)N=C1N`
output: 104

input: Hello, please tell me recorded inhibition at 10 µM for this one: `[2H]C([2H])([2H])Oc1ccc(C(=O)Nc2ccc(F)c([C@@]3(C)N=C(N)[C@@](C)(F)C[C@H]3F)c2)nc1`
output: 107

Please give inhibition at 10 µM, item by item, for the list that follows.
1. [2H]C([2H])([2H])Oc1ccc(C(=O)Nc2cc(F)c(F)c([C@@]3(C)N=C(N)[C@](C)(F)C[C@@H]3F)c2)nc1
2. C[C@@]1(F)C[C@H](F)[C@@](C)(c2cc(NC(=O)c3ccn(C(F)F)n3)ccc2F)N=C1N
3. C[C@@]1(F)C[C@H](F)[C@@](C)(c2cc(NC(=O)c3ccc(Cl)cn3)ccc2F)N=C1N
4. C[C@@]1(F)C[C@H](F)[C@@](C)(c2cc(NC(=O)c3cnc(C(F)F)cn3)ccc2F)N=C1N

output:
101
112
109
108

input: Please indicate inhibition at 10 µM recorded for `Cc1csc(C(=O)Nc2ccc(F)c([C@@]3(C)N=C(N)[C@](C)(F)C[C@@H]3F)c2)n1`
output: 118

====

system: P-gp (MDR1); assay: MDCK-MDR1 assay (permeability, efflux ratio); format: in vitro ADME; conditions: dog, Papp BA/Papp AB, 60-minute incubation, Pgp substrate when ≥2
Quick rule: efflux ratio at 60 min, 0.5 μM of at least 0.9 means MET, below that means NOT MET.

Example entries begin here.
input: Hi team, for Cc1nc(C(=O)Nc2ccc(F)c([C@@]3(C)N=C(N)[C@](C)(F)C[C@@H]3F)c2)co1 [Compound 6] , is the recorded efflux ratio at 60 min, 0.5 μM at or above 0.9?
output: MET

input: hey, is efflux ratio at 60 min, 0.5 μM for this one >= 0.9? [2H]C([2H])([2H])Oc1ccc(C(=O)Nc2cc(F)c(F)c([C@@]3(C)N=C(N)[C@](C)(F)C[C@@H]3F)c2)nc1 [Compound 18]
output: MET

input: Has C[C@@]1(F)C[C@H](F)[C@@](C)(c2cc(NC(=O)c3coc(C(F)F)n3)ccc2F)N=C1N [Compound 13] a recorded efflux ratio at 60 min, 0.5 μM greater than or equal to 0.9?
output: MET

input: Identify whether the reported efflux ratio at 60 min, 0.5 μM of the following molecule is 0.9 or greater: [2H]C([2H])([2H])Oc1cnc(C(=O)Nc2ccc(F)c([C@@]3(C)N=C(N)[C@@](C)(F)C[C@@H]3F)c2)cn1 [Compound 20]
output: NOT MET

input: Is the recorded value of efflux ratio at 60 min, 0.5 μM equal to or greater than 0.9 for this molecule? COc1ccc(C(=O)Nc2ccc(F)c([C@@]3(C)N=C(N)[C@](C)(F)C[C@@H]3F)c2)nc1 [Compound 7]
output: MET

input: Threshold query (efflux ratio at 60 min, 0.5 μM >= 0.9) on COc1cnc(C(=O)Nc2ccc(F)c([C@@]3(C)N=C(N)[C@](C)(F)C[C@@H]3F)c2)cn1 [Compound 5]
output: MET

input: Decide: is the reported value of efflux ratio at 60 min, 0.5 μM for [2H]C([2H])([2H])Oc1ccc(C(=O)Nc2ccc(F)c([C@@]3(C)N=C(N)[C@@](C)(F)C[C@@H]3F)c2)nc1 [Compound 19] equal to or greater than 0.9?
output: NOT MET

input: Record C[C@@]1(F)C[C@H](F)[C@@](C)(c2cc(NC(=O)c3ccc(F)cn3)ccc2F)N=C1N [Compound 4] ; criterion: efflux ratio at 60 min, 0.5 μM no lower than 0.9. Met?
output: MET

input: Please check the record COc1ccc(C(=O)Nc2ccc(F)c([C@@]3(C)N=C(N)[C@@](C)(F)C[C@@H]3F)c2)nc1 [Compound 3] and state if its efflux ratio at 60 min, 0.5 μM is at or above 0.9.
output: MET

input: // inclusive: efflux ratio at 60 min, 0.5 μM at least 0.9? input: [2H]C([2H])([2H])Oc1ccc(C(=O)Nc2ccc(F)c([C@@]3(C)N=C(N)[C@](C)(F)C[C@@H]3F)c2)nc1 [Compound 8]
output: MET

Further cases:
input: Assess whether reported efflux ratio at 60 min, 0.5 μM for COc1cnc(C(=O)Nc2ccc(F)c([C@@]3(C)N=C(N)[C@@](C)(F)C[C@@H]3F)c2)cn1 [Compound 2] sits at 0.9 or higher.
output: NOT MET

input: Check this molecule for efflux ratio at 60 min, 0.5 μM at or above 0.9: Cc1cc(C#N)cnc1C(=O)Nc1ccc(F)c([C@@]2(C)N=C(N)[C@@](C)(F)C[C@@H]2F)c1 [Compound 21]
output: MET

input: Say whether [2H]C([2H])([2H])Oc1ccc(C(=O)Nc2cc(F)c(F)c([C@@]3(C)N=C(N)[C@@](C)(F)C[C@@H]3F)c2)nc1 [Compound 22] shows efflux ratio at 60 min, 0.5 μM of 0.9 or more.
output: NOT MET

input: Confirm if efflux ratio at 60 min, 0.5 μM reported for the molecule [2H]C([2H])([2H])Oc1ccc(C(=O)Nc2ccc(F)c([C@@]3(C)N=C(N)[C@@](C)(F)C[C@H]3F)c2)nc1 [Compound 23] is 0.9 or above.
output: MET
